Entries and their measured IC50 follow.
# Test system: HT-1376
# Assay info: Antiproliferative activity against human HT-1376 cells after 10 days
# Assay type: functional, cell-based
# Particulars: HT-1376, 240 h

INSERT INTO measurements (structure, system_under_test, experimental_value) VALUES
  ('O=C(NC1CN(Cc2cnn(Cc3ccccc3)c2)C1)c1cn(C2CC2)nn1', 'HT-1376', '> 10000 nM');

Summary for this compound, Cc1cn(CCN2CCN(c3ccccc3-c3cc(C#N)cc(C(=O)NCCCN4CCCC4)c3)CC2)c2ccccc12 : IC50 is 2350 nM

* * *

# System: HT-1080
# Assay info: Antiproliferative activity against human HT-1080 cells after 10 days
# Assay type: functional, cell-based
# Particulars: HT-1080, 240 h
Recorded endpoint: IC50 (nM)
Response body: numeric value in nM, unit text excluded.

For Cc1cn(CCN2CCN(c3ccccc3-c3cc(C#N)cc(C(=O)NCCCN4CCCC4)c3)CC2)c2ccccc12 on HT-1080, measured IC50 was 1980
